# Experiment Notes: Half life in mouse at 10 mg/kg, po
# Type: ADME, organism-based
# Conditions Used: in vivo
Recorded half-life values for a group of compounds are listed next.

{"Structure String": "CCc1nc2cc(Cl)ccn2c1C(=O)NCc1ccc(OCc2ccc(OC(F)(F)F)cc2)cc1", "half-life [h]": 11.9}
{"Structure String": "CCc1nc2ccc(F)cn2c1C(=O)NCc1ccc(OCc2ccc(OC(F)(F)F)cc2)cc1", "half-life [h]": 11.4}
{"Structure String": "CCc1nc2ccc(Cl)cn2c1C(=O)NCc1ccc(N2CCC(Oc3ccc(Cl)cc3)CC2)cc1", "half-life [h]": 18.9}
{"Structure String": "CCc1nc2ccc(Cl)cn2c1C(=O)NCc1ccc(N2CCC(Oc3ccc(C(F)(F)F)cc3)CC2)cc1", "half-life [h]": 20}

====

Recorded clearance values for a group of molecules are listed next.
# Experiment Notes: Clearance in mouse at 2 mg/kg, iv
# Type: ADME, organism-based
# Conditions Used: in vivo

{"Structure String": "CCc1nc2cc(Cl)ccn2c1C(=O)NCc1ccc(OCc2ccc(OC(F)(F)F)cc2)cc1", "clearance [mL/min/kg]": 5.77}
{"Structure String": "CCc1nc2ccc(Cl)cn2c1C(=O)NCc1ccc(N2CCC(Oc3ccc(C(F)(F)F)cc3)CC2)cc1", "clearance [mL/min/kg]": 2.23}
{"Structure String": "CCc1nc2ccc(F)cn2c1C(=O)NCc1ccc(OCc2ccc(OC(F)(F)F)cc2)cc1", "clearance [mL/min/kg]": 4.76}
{"Structure String": "CCc1nc2ccc(Cl)cn2c1C(=O)NCc1ccc(N2CCC(Oc3ccc(Cl)cc3)CC2)cc1", "clearance [mL/min/kg]": 2.83}
